Where do the numbers come from? From ChEMBL document CHEMBL1201862.

- Test system: EKVX
- Assay method text: NCI tumour cell line growth inhibition, 48 h
Calls of active or inactive are those of the source. No stated cut-off is given here; in the data, active = GI50 up to about 1.1 µM and inactive = higher.
Reported metric: GI50

These recorded examples may help you get a feel for the data.
Compound: CC(C)(C)c1cc(O)c2c(c1O)C(=O)CCC2
GI50: 54.8 µM (inactive)
//
Compound: CCCCOC(=O)CN1C(=O)c2ccccc2C1=O
GI50: > 100 µM (inactive)
//
Compound: NC(Cc1c[nH]c2ccccc12)P(=O)(O)O (stereo not drawn)
GI50: > 100 µM (inactive)
//
Compound: O=C(NC1CCCCC1)c1cc2ccccc2cc1O
GI50: 34.1 µM (inactive)
//
Compound: CC1CN=C(NCc2ccccc2)S1 (stereo not drawn)
GI50: > 100 µM (inactive)
//
Compound: COc1cc2cc(OC)c3cc4c(cc3c2c(OC)c1OC)OCO4
GI50: 50.6 µM (inactive)
//
Compound: COc1cc(C(C)c2cc3c(cc2OCCNC(=O)COc2cc4c(cc2C(C)c2cc(OC)c(OC)c(OC)c2)OCO4)OCO3)cc(OC)c1OC (stereo not drawn)
GI50: 29.6 µM (inactive)
//
Compound: Oc1ccc(-c2nn3c(CCCCCCCCc4nnc5sc(-c6ccc(O)cc6)nn45)nnc3s2)cc1
GI50: > 100 µM (inactive)
//
Compound: CN1CCCCC1CCN1CCCCC1 (stereo not drawn)
GI50: > 100 µM (inactive)
//
Compound: O=c1n(CC2CO2)c2ccccc2n1CC1CS1 (stereo not drawn)
GI50: > 100 µM (inactive)

Recorded GI50 of `CCCCCCCCCCCCC/C=C1\C[C@H](O)COC1=O` , please.
17.5 µM (inactive)

# GI50 lookup, item COc1ccc(C2Cc3cc(OC)c(OC)c(OC)c3C2)cc1 (stereo not drawn)
29 µM (inactive)

Item under review: `O=C(/C=C\c1cccc2ccccc12)c1ccc(Cl)cc1Cl` . Reported GI50?
36.5 µM (inactive)

Consider the compound `COC(=O)/C=C1/SC(/C(=C(/[O-])OC)[n+]2ccc3ccccc3c2)=NC1=O` and give its measured GI50.
> 100 µM (inactive)

May I ask what GI50 has been recorded for Clc1ccc2c(c1)-c1c3c(nn1-c1ccccc1)-c1ccccc1SC3O2 (stereo not drawn) ?
> 100 µM (inactive)

Would you mind telling me what GI50 value was observed for `CN(C)CCNC(=O)c1cccc2nc3c(Cl)cccc3nc12` ?
8.61 µM (inactive)

Return reported GI50; argument: `O=C(/C=C/c1ccc(Br)cc1)c1ccc(NCc2nc3ccccc3[nH]2)cc1`
> 30.2 µM (inactive)

State the recorded GI50 for this entry: `COc1cc(C(=O)C/C(CCC(=O)Nc2ccccc2[N+](=O)[O-])=N\NC(N)=O)ccc1O`
32.9 µM (inactive)

---

- Test system: SF-539
- Assay method text: NCI tumour cell line growth inhibition, 48 h
The source made the active and inactive calls. No stated cut-off is given here; in the data, active = GI50 up to about 1.1 µM and inactive = higher.
Answer with one of the outcomes active, inactive

Per the records of this test, what outcome belongs to `COC(c1ccc(C(C)(C)C)cc1)(c1ccc(C(C)(C)C)cc1)c1cc(C(O)(c2cc(C(OC)(c3ccc(C(C)(C)C)cc3)c3ccc(C(C)(C)C)cc3)c(C)cc2C)c2cc(C(OC)(c3ccc(C(C)(C)C)cc3)c3ccc(C(C)(C)C)cc3)c(C)cc2C)c(C)cc1C` ?
inactive

Can you look up the reported call for `O=C(CCC(=O)Nc1cccc(C(F)(F)F)c1)CC(=O)c1ccc2ccccc2c1` for me?
inactive

Please state the recorded outcome for this compound: `CN(C)Cc1nsc(N(C)C)n1`
inactive

How did this test come out for Cn1nnc2c(C(N)=O)ncn2c1=O [TEMOZOLOMIDE] ?
inactive

Tell me the recorded outcome of this test for `N#CC(C#N)=C(N)/C(C#N)=C/c1ccc(O)c(O)c1` .
inactive

Any idea what this test logged for `CCCc1c(OC)c(=O)c2c(OC)cc(OC)c3c4c(OC)cc(OC)c5c(=O)c(OC)c(CCC)c(c1c23)c54` ?
inactive

I'd appreciate the recorded outcome for `CC(C)OC(=O)c1cccnc1/C=N/O` from this test.
inactive

Look up the recorded call for CN(C)CCN1C(=O)c2cccc3cc(N)cc(c23)C1=O [AMONAFIDE] in this test.
inactive

Hi, do you know how `Cc1ccccc1NC(=O)C(=O)Cc1nc2ccccc2s1` came out in this test?
inactive

For `Oc1ccc(-c2nn3c(CCCCCCCCc4nnc5sc(-c6ccc(O)cc6)nn45)nnc3s2)cc1` , what call appears in the results of this test?
inactive

Test call for this compound, please: COC(=O)NC(Cc1ccccc1)NC(C)=O (stereo not given)
inactive

Record lookup: outcome of this test for `NS(=O)(=O)c1ccc(/N=N/c2ncccc2O)cc1` ?
inactive

Per the records of this test, what outcome belongs to `Cc1ccc(S(=O)(=O)N/N=C(\C(=O)Nc2cccc([N+](=O)[O-])c2)c2nc3ccc([N+](=O)[O-])cc3nc2O)cc1` ?
inactive

Please let me know the test result on file for `COc1ccc(/C=C(/C(=O)c2ccc(Cl)cc2)N2C=CC=CC2=C(C#N)C#N)cc1OC` .
inactive
